EXPERIMENTAL_TARGET: hPD-L1 (Homo sapiens, UniProt Q9NZQ7)
Sequence (Q9NZQ7 19-238 limits assumed): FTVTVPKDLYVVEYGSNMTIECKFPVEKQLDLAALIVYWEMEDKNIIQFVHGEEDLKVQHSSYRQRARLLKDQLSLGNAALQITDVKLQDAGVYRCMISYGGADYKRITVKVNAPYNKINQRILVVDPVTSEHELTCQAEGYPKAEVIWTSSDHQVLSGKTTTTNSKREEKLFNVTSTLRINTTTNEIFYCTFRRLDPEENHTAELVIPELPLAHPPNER
So I've got a bunch of compounds here, and I need their pKd values.
One number for each entry, as −log10 of the molar value.

> print(dat)
                                   compound                    experimental.target  measurement
1  COc1nc(-c2cccc(-c3ccc(F)cc3)c2C)ccc1CNCCC(N)=O [Compound A15]  hPD-L1 (Homo sapiens, UniProt Q9NZQ7)         7.70

Let's switch to this compound now.
// query Given COc1nc(-c2cccc(-c3ccccc3F)c2C)ccc1CNCCC(N)=O [Compound A9] , respond with its pKd.
// result 8.44

* * *

EXPERIMENTAL_TARGET: PD-1/PD-L1 interaction (Homo sapiens, UniProt Q9NZQ7)
Construct: purchased Cisbio 64ICP01PEG
Sequence (Q9NZQ7 19-238 limits assumed): as above
TEST_NAME: HTRF-based PD-1/PD-L1 binding assay
TEST_CONDITIONS: LE = −1.35 logIC50/Nheavy atoms (HTRF IC50)
PROPERTY: LE
Numbers only.

> print(dat)
                                   compound                       experimental.target  measurement
1  COc1nc(-c2cccc(-c3ccccc3C(F)(F)F)c2C)ccc1CNCCC(N)=O  PD-1/PD-L1 interaction (Homo sapiens, UniProt Q9NZQ7)         0.31
2  COc1nc(-c2cccc(-c3ccccc3F)c2C)ccc1CNCCC(N)=O  PD-1/PD-L1 interaction (Homo sapiens, UniProt Q9NZQ7)         0.43
3  COc1nc(-c2cccc(-c3ccccc3F)c2C)ccc1CNC1CCC(O)CC1 (stereo not shown)  PD-1/PD-L1 interaction (Homo sapiens, UniProt Q9NZQ7)         0.35
4  COc1nc(-c2cccc(-c3ccc(F)cc3F)c2C)ccc1CNCCC(N)=O  PD-1/PD-L1 interaction (Homo sapiens, UniProt Q9NZQ7)         0.33
5  COc1nc(-c2cccc(-c3ccccc3F)c2C)ccc1CN1CCC(C(=O)O)CC1  PD-1/PD-L1 interaction (Homo sapiens, UniProt Q9NZQ7)         0.33
6  COc1cc(-c2cccc(-c3ccccc3F)c2C)ccc1CN1CCC(O)CC1  PD-1/PD-L1 interaction (Homo sapiens, UniProt Q9NZQ7)         0.35

# return LE for each item in the list
1. COc1nc(-c2cccc(-c3ccc(Cl)cc3F)c2C)ccc1CNCCC(N)=O
2. COc1nc(-c2cccc(-c3ccccc3F)c2C)ccc1CN1CCC(O)CC1
3. COc1nc(-c2cccc(-c3ccccc3)c2C)ccc1CNCCC(N)=O
4. Cc1ccccc1-c1cccc(OCCCN2CCC(O)CC2)c1C.Cl
5. COc1nc(-c2cccc(-c3ccccc3F)c2C)ccc1CN1CCC(C(N)=O)CC1
6. COc1nc(-c2cccc(-c3ccccc3C)c2C)ccc1CNCCC(N)=O

// result
[0.28, 0.36, 0.43, 0.38, 0.34, 0.38]

// query Given COc1nc(-c2cccc(-c3ccccc3F)c2C)ccc1CN1CCCC(C(N)=O)C1 (stereo not shown) , respond with its LE.
// result 0.30

* * *

So I've got a bunch of compounds here, and I need their melting point values.

> print(dat)
                                   compound    measurement
1  COc1nc(-c2cccc(-c3ccccc3F)c2C)ccc1CNC1CCC(O)CC1 (centres unmarked)    80 to 82 °C
2  COc1nc(-c2cccc(-c3ccccc3F)c2C)ccc1CN1CCC(C(N)=O)CC1  194 to 196 °C
3  COc1nc(-c2cccc(-c3ccccc3C)c2C)ccc1CNCCC(N)=O    70 to 73 °C
4  COc1nc(-c2cccc(-c3ccc(F)cc3F)c2C)ccc1CNCCC(N)=O  113 to 115 °C
5  COc1nc(-c2cccc(-c3ccc(F)cc3)c2C)ccc1CNCCC(N)=O  120 to 122 °C
6  COc1nc(-c2cccc(-c3ccc(Cl)cc3F)c2C)ccc1CNCCC(N)=O  122 to 124 °C
7  COc1nc(-c2cccc(-c3cccc(F)c3)c2C)ccc1CNCCC(N)=O    48 to 51 °C

// query Given `COc1nc(-c2cccc(-c3ccccc3)c2C)ccc1CNCCC(N)=O` , respond with its melting point.
// result 127 to 128 °C

* * *

TEST_NAME: Water solubility by HPLC
Type: physicochemical
TEST_CONDITIONS: aqueous buffer, thermodynamic from solid, pH 7.4, PBS
So I've got a bunch of compounds here, and I need their solubility values.
One number for each entry, in µg/mL.

> print(dat)
                                   compound    property  measurement
1  COc1nc(OCc2cccc(-c3ccccc3)c2C)ccc1CNCCNC(C)=O [BMS-202, reference compound]  solubility           90

Let's switch to this compound now.
// query Given COc1nc(-c2cccc(-c3ccccc3F)c2C)ccc1CNCCC(N)=O [Compound A9] , respond with its solubility.
// result 126

The origin of these recorded values is paper PMC8199613.
